# credit: PubChem BioAssay (EPA / NIEHS)

# Read-out: Cytochrome P450 4A22 (Homo sapiens)
# measurement description: LTEA_HepaRG_CYP4A22: Life Technologies and Expression Analysis (LTEA) Assay for Cytochrome P450 4A22 (CYP4A22) using HepaRG (AID 2283495)
# run parameters: mRNA level, 48 h; actives raise or lower the signal
Calls of active or inactive are those of the source. Rule for the calls: active = hit-call score of the fitted dose curve at least 0.9, where 1 is the maximum; inactive = score below 0.9.
Outcomes you can answer with include only these: T (active), F (inactive)

The examples below pair each entry with its known result.
- molecule: "Nc1ccc(Nc2ccccc2)cc1"
  group: "F"
- molecule: "O=C(O)c1cc(N=Nc2ccc(S(=O)(=O)Nc3ccccn3)cc2)ccc1O"
  group: "F"
- molecule: "O=c1[nH]c2ccc(S(=O)CCN3CCC(Cc4ccc(F)cc4)CC3)cc2o1 (configuration not stated)"
  group: "T"
- molecule: "COc1ccc(-n2nc(C(F)F)cc2-c2ccc(S(C)=O)cc2)cc1 (configuration not stated)"
  group: "T"
- molecule: "CCOC(=O)c1ccc(C2CCC(NC[C@H](O)COc3ccc(O)c(NS(C)(=O)=O)c3)CC2)cc1 (some centres not stated)"
  group: "F"
- molecule: "CC[C@H]1OC(=O)[C@H](C)[C@@H](O[C@H]2C[C@@](C)(OC)[C@@H](O)[C@H](C)O2)[C@H](C)[C@@H](O[C@@H]2O[C@H](C)C[C@H](N(C)C)[C@H]2O)[C@](C)(O)C[C@@H](C)C(=O)[C@H](C)[C@@H](O)[C@]1(C)O"
  group: "F"
- molecule: "CCOc1cccc(-n2cc(C(=O)N3CCN(c4cc(C(=O)O)c5ccccc5c4)CC3)nc2-c2ccc(C)cc2)c1"
  group: "T"
- molecule: "CC1(C)C(=O)N(Br)C(=O)N1Br"
  group: "F"
- molecule: "C[C@](N)(Cc1ccc(O)c(O)c1)C(=O)O"
  group: "F"
- molecule: "COCCOCCOCCOC"
  group: "F"

// switching to the query molecule
(Q) Which result was noted for this molecule in the test: CCCCC(CC)COC(=O)c1ccc(C(=O)OCC(CC)CCCC)cc1 (configuration not stated)
(A) F

----------
# Read-out: Glutamate-cysteine ligase catalytic (GCLC), GCLC (gene 2729)
# measurement description: LTEA_HepaRG_GCLC: Life Technologies and Expression Analysis (LTEA) Assay for Glutamate-cysteine ligase catalytic (GCLC) using HepaRG (AID 2283498)
# run parameters: mRNA level, 48 h; actives raise or lower the signal
Activity calls are given as the source filed them. The calls were made as follows: active = hit-call score of the fitted dose curve at least 0.9, where 1 is the maximum; inactive = score below 0.9.
recorded endpoint: AC50

// worked examples, AC50 included
- compound: "CC(C)CCCCCCOC(=O)c1ccc(C(=O)OCCCCCCC(C)C)c(C(=O)OCCCCCCC(C)C)c1"
  recorded endpoint: "AC50"
  result: "inactive"
- compound: "CC(C)CCCCCCCOC(=O)CCCCC(=O)OCCCCCCCC(C)C"
  recorded endpoint: "AC50"
  result: "inactive"
- compound: "COc1ccc2sc(C(=O)Nc3nnn[nH]3)c(OC(C)C)c2c1"
  recorded endpoint: "AC50"
  result: "inactive"
- compound: "CC(=O)c1ccc2c(c1)[C@H](NC(=O)c1ccc(F)cc1)[C@@H](O)C(C)(C)O2"
  recorded endpoint: "AC50"
  result: "inactive"
- compound: "COC(=O)c1c(Cl)c(Cl)c(C(=O)OC)c(Cl)c1Cl"
  recorded endpoint: "AC50"
  result: "inactive"
- compound: "O=C(CCCCCCCCc1cccnc1)N1CCC(C=C(c2ccccc2)c2ccccc2)CC1"
  recorded endpoint: "AC50"
  result: "12.5 µM (active)"
- compound: "C1N2CN3CN1CN(C2)C3"
  recorded endpoint: "AC50"
  result: "inactive"
- compound: "NC(=O)NO"
  recorded endpoint: "AC50"
  result: "inactive"

Give measured AC50 for every item shown.
1. COc1cccc(-c2ccc(/C=C\CN3CCCCCC3)cc2Cl)c1
2. Cc1[nH]cnc1C[C@H]1CCc2c(C)c3ccccc3n2C1=O

(A)
1. inactive
2. 29.7 µM (active)

----------
# measurement description: ATG_MRE_CIS: Attagene CIS-FACTORIAL HepG2 Assay for human Metal Responsive Element (MRE) (AID 2282954)
# run parameters: HepG2 MRE cis-reporter transcription, Attagene multiplex; actives raise or lower the signal
Calls of active or inactive are those of the source. Rule for the calls: active = hit-call score of the fitted dose curve at least 0.9, where 1 is the maximum; inactive = score below 0.9.
Outcomes you can answer with include only these: active, inactive

- compound: "C=CC(=C)CCC=C(C)C"
  group: "inactive"
- compound: "Oc1ccc2c(c1)-c1ccccc1C2"
  group: "active"
- compound: "CC(O)CN(CCN(CC(C)O)CC(C)O)CC(C)O (centres undefined)"
  group: "inactive"
- compound: "O=P(OC(CCl)CCl)(OC(CCl)CCl)OC(CCl)CCl"
  group: "active"
- compound: "O=C(CCCCCCCCc1cccnc1)N1CCC(C=C(c2ccccc2)c2ccccc2)CC1"
  group: "active"
- compound: "CCOc1cccc(-n2cc(C(=O)N3CCN(c4cc(C(=O)O)c5ccccc5c4)CC3)nc2-c2ccc(C)cc2)c1"
  group: "active"
- compound: "CC(C)CCCCCCOC(=O)c1ccc(C(=O)OCCCCCCC(C)C)c(C(=O)OCCCCCCC(C)C)c1"
  group: "inactive"
- compound: "O=C(O)c1cccc(N(Cc2cccnc2)c2ccc(OC(F)F)c(OC(F)F)c2)c1"
  group: "inactive"
- compound: "O=C1OC(=O)C2C3C=CC(C3)C12 (centres undefined)"
  group: "inactive"
- compound: "COc1ccc(/C=C/S(=O)(=O)NC(=O)c2ccc(C)cc2Cl)cc1"
  group: "inactive"

(Q) Which result was noted for this compound in the test: CCCN(C1CCN(C(=O)C2CCNCC2)CC1)[C@@H]1CCc2ccc(OC)cc2C1
(A) inactive

(Q) Which result was noted for this compound in the test: CCCCC(CC)COC(=O)c1ccc(C(=O)OCC(CC)CCCC)cc1 (centres undefined)
(A) inactive

(Q) Which result was noted for this compound in the test: Cc1ccc(C)c(O)c1
(A) inactive

(Q) Which result was noted for this compound in the test: CC1(C)C(=O)N(Br)C(=O)N1Br
(A) inactive

(Q) Which result was noted for this compound in the test: O=c1n(CC2CO2)c(=O)n(CC2CO2)c(=O)n1CC1CO1 (centres undefined)
(A) active

(Q) Which result was noted for this compound in the test: O=C1CCCCCN1
(A) inactive

(Q) Which result was noted for this compound in the test: COc1ccc(-n2nc(C(F)F)cc2-c2ccc(S(C)=O)cc2)cc1 (centres undefined)
(A) inactive

(Q) Which result was noted for this compound in the test: CCOC(=O)c1ccc(C2CCC(NC[C@H](O)COc3ccc(O)c(NS(C)(=O)=O)c3)CC2)cc1 (some centres undefined)
(A) active

(Q) Which result was noted for this compound in the test: O=c1[nH]c2ccc(S(=O)CCN3CCC(Cc4ccc(F)cc4)CC3)cc2o1 (centres undefined)
(A) active

(Q) Which result was noted for this compound in the test: Cc1ccc(S(=O)(=O)O)cc1C
(A) inactive

(Q) Which result was noted for this compound in the test: COc1ccc2sc(C(=O)Nc3nnn[nH]3)c(OC(C)C)c2c1
(A) active

(Q) Which result was noted for this compound in the test: Clc1nc(Cl)c(Cl)c(Cl)c1Cl
(A) inactive

(Q) Which result was noted for this compound in the test: Fc1ccccc1[C@@H](F)COC1CCC(Nc2ncnc3[nH]ncc23)CC1 (some centres undefined)
(A) active

(Q) Which result was noted for this compound in the test: Cc1ccc(N)cc1O
(A) inactive

----------
# Read-out: MYC, MYC (gene 4609)
# measurement description: LTEA_HepaRG_MYC: Life Technologies and Expression Analysis (LTEA) Assay for MYC using HepaRG (AID 2283518)
# run parameters: mRNA level, 48 h; actives raise or lower the signal
The source made the active and inactive calls. Rule for the calls: active = hit-call score of the fitted dose curve at least 0.9, where 1 is the maximum; inactive = score below 0.9.
Outcomes you can answer with include only these: 1 (active), 0 (inactive)

The examples below pair each entry with its known result.
- compound: "CC(=O)c1ccc2c(c1)[C@H](NC(=O)c1ccc(F)cc1)[C@@H](O)C(C)(C)O2"
  group: 0
- compound: "CCOC(=O)c1ccc(C2CCC(NC[C@H](O)COc3ccc(O)c(NS(C)(=O)=O)c3)CC2)cc1 (stereo partly drawn)"
  group: 0
- compound: "CCCC(=O)OCC"
  group: 0
- compound: "O=P(OC(CCl)CCl)(OC(CCl)CCl)OC(CCl)CCl"
  group: 1
- compound: "COCCOCCOCCOC"
  group: 0

(Q) Which result was noted for this compound in the test: CC(C)CCCCCCOC(=O)c1ccc(C(=O)OCCCCCCC(C)C)c(C(=O)OCCCCCCC(C)C)c1
(A) 0

(Q) Which result was noted for this compound in the test: Cc1c(-c2cccnc2)c2ccccc2n1CCCCC(=O)O
(A) 0

(Q) Which result was noted for this compound in the test: Nc1cccc(N)c1
(A) 0

----------
# measurement description: ATG_DR4_LXR_CIS: Attagene CIS-FACTORIAL HepG2 Assay for human Liver X Receptor (LXR), DR4 submotif (AID 2282929)
# run parameters: HepG2 Attagene DR4 cis-reporter, mRNA transcription; actives raise or lower the signal
Active and inactive are the calls of the source. The calls were made as follows: active = hit-call score of the fitted dose curve at least 0.9, where 1 is the maximum; inactive = score below 0.9.
Outcomes you can answer with include only these: active, inactive

The examples below pair each entry with its known result.
- molecule: "Cc1[nH]cnc1C[C@H]1CCc2c(C)c3ccccc3n2C1=O"
  group: "active"
- molecule: "CCOCCO"
  group: "inactive"
- molecule: "CC(C)=CCC/C(C)=C\\CO"
  group: "inactive"
- molecule: "CCOCCOCCOCCO"
  group: "inactive"
- molecule: "CCCCCCc1ccc(O)cc1O"
  group: "active"
- molecule: "CC[C@H]1OC(=O)[C@H](C)[C@@H](O[C@H]2C[C@@](C)(OC)[C@@H](O)[C@H](C)O2)[C@H](C)[C@@H](O[C@@H]2O[C@H](C)C[C@H](N(C)C)[C@H]2O)[C@](C)(O)C[C@@H](C)C(=O)[C@H](C)[C@@H](O)[C@]1(C)O"
  group: "inactive"

(Q) Which result was noted for this molecule in the test: CC(C)(O)c1coc(S(=O)(=O)NC(=O)Nc2c3c(cc4c2CCC4)CCC3)c1
(A) inactive

(Q) Which result was noted for this molecule in the test: O=c1[nH]c2ccc(S(=O)CCN3CCC(Cc4ccc(F)cc4)CC3)cc2o1 (stereo unspecified)
(A) active

(Q) Which result was noted for this molecule in the test: CC(C)=CCC/C(C)=C/CO
(A) inactive

(Q) Which result was noted for this molecule in the test: O=C(O)CC(O)C(=O)O (stereo unspecified)
(A) inactive

(Q) Which result was noted for this molecule in the test: Fc1ccccc1[C@@H](F)COC1CCC(Nc2ncnc3[nH]ncc23)CC1 (stereo partly specified)
(A) inactive
